Provenance of the data: ChEMBL document CHEMBL3632606

half-life at 2 µM: recorded values
test: Half life in human liver microsomes at 2 uM by LC-MS/MS analysis; format: ADME

{"QUERY SMILES": "COc1cc(-c2nccc3ccc(-c4ccc5[nH]ccc5c4)cc23)cc(OC)c1OC", "half-life at 2 µM": "38.9 min"}

Input line: Item under review: `COc1cc(-c2nccc3[nH]c(-c4cccc5[nH]ccc45)nc23)cc(OC)c1OC` . Reported half-life at 2 µM?
Output line: 33.1 min

Input line: Again, but for `COc1cc(C(=O)c2cccc(-c3cc4ccccc4[nH]3)c2)cc(OC)c1OC`
Output line: 24 min

Input line: What do you have for `COc1cc(-c2nccc3[nH]c(-c4ccc5[nH]ccc5c4)nc23)cc(OC)c1OC` ?
Output line: 45.4 min

Input line: Input `Fc1ccc(-c2nccc3ccc(-c4ccc5[nH]ccc5c4)cc23)cc1`
Output line: 30.7 min

Input line: Quick one: `COc1cc(-c2nccc3[nH]c(-c4ccc5cc[nH]c5c4)nc23)cc(OC)c1OC`
Output line: 56.3 min

* * *

test: Cytotoxicity against human PPC1 cells after 48 hrs by MTS assay; format: functional, cell-based; conditions: PPC-1, 48 h
Collected IC50 values appear next to each entry.
Just the number please, in nM, no unit attached.

As a guide, the following entries are already answered.
{"QUERY SMILES": "COc1cc(-c2nccc3ccc(-c4ccc5[nH]ccc5c4)cc23)cc(OC)c1OC", "QUANTITY KIND": "IC50", "EXPERIMENTAL RESULT": 61}
{"QUERY SMILES": "Fc1ccc(-c2nccc3ccc(-c4ccc5[nH]ccc5c4)cc23)cc1", "QUANTITY KIND": "IC50", "EXPERIMENTAL RESULT": 28}

Input line: Please look up its IC50: `c1cc2ccc(-c3ccc4[nH]ccc4c3)cc2c(-c2ccc3[nH]ccc3c2)n1`
Output line: 48

* * *

test system: M14; experiment: Cytotoxicity against human M14 cells after 48 hrs by MTS assay; assay type: functional, cell-based; details: M14, 48 h
QUANTITY KIND: pIC50
As a rule, pIC50 stands for the negative log10 of the concentration, concentration in M.

{"QUERY SMILES": "COc1cc(-c2nccc3ccc(-c4ccc5[nH]ccc5c4)cc23)cc(OC)c1OC", "TARGET UNDER TEST": "M14", "pIC50": 7.13}

Input line: I am curious: what pIC50 value has been reported for `COc1cc(-c2nccc3[nH]c(-c4cc5ccccc5[nH]4)nc23)cc(OC)c1OC` ?
Output line: 6.79

Input line: What do we get for `COc1cc(-c2nccc3[nH]c(-c4ccc5cc[nH]c5c4)nc23)cc(OC)c1OC` ?
Output line: 7.80

Input line: Would you kindly repeat that for `COc1cc(-c2ccc3ccnc(-c4cc(OC)c(OC)c(OC)c4)c3c2)cc(OC)c1OC` ?
Output line: 5.01

Input line: Then `COc1cc(-c2nccc3[nH]c(-c4cccc5c4ccn5S(=O)(=O)c4ccccc4)nc23)cc(OC)c1OC` ?
Output line: 6.17

Input line: Would you mind doing `COc1cc(-c2nccc3[nH]c(-c4ccc5[nH]ccc5c4)nc23)cc(OC)c1OC` as well?
Output line: 7.28

Input line: Likewise for `Fc1ccc(-c2nccc3ccc(-c4ccc5[nH]ccc5c4)cc23)cc1` ?
Output line: 7.31

Input line: Next molecule up: `c1cc2ccc(-c3ccc4[nH]ccc4c3)cc2c(-c2ccc3[nH]ccc3c2)n1`
Output line: 6.95
